protocolNotes: Phase 1 single dose study, plasma pharmacokinetics in healthy adult males
Format: in vivo, human
particulars: male, human, plasma, po, 100 mg, 100 mg single oral, fasted, suspension (C3); read-out: Vz/F
measure: Vd/F
Note to self: number, then unit, no commentary.

**Q:** State its Vd/F: [2H]c1c([2H])c([2H])c2c(C(=O)c3cc(Br)c(O)c(Br)c3)c(C(C)O)oc2c1[2H] (racemic)
**A:** 18.6 L

====

protocolNotes: Phase 1 single dose study, plasma pharmacokinetics in healthy adult males
Assay type: in vivo, human
particulars: male, human, plasma, po, 50 mg, 50 mg single oral, fasted, suspension (C2); read-out: Tmax (median)
measure: Tmax (h)
Supply the numeric figure in h, leaving out any unit text.

**Q:** State its Tmax: [2H]c1c([2H])c([2H])c2c(C(=O)c3cc(Br)c(O)c(Br)c3)c(C(C)O)oc2c1[2H] (racemic)
**A:** 3

====

protocolNotes: Phase 1 single dose study, plasma pharmacokinetics in healthy adult males
Assay type: in vivo, human
particulars: male, human, plasma, po, 100 mg, 100 mg single oral, fasted, suspension (C3); read-out: AUCinf (total)
measure: AUC(0-inf) (ng·h/mL)
Supply the numeric figure in ng·h/mL, leaving out any unit text.

**Q:** State its AUC(0-inf): [2H]c1c([2H])c([2H])c2c(C(=O)c3cc(Br)c(O)c(Br)c3)c(C(C)O)oc2c1[2H] (racemic)
**A:** 99700

====

protocolNotes: Phase 1 single dose study, plasma pharmacokinetics in healthy adult males
Type: in vivo, human
particulars: male, human, plasma, po, 50 mg, 50 mg single oral, fed (high-fat, high-calorie meal); read-out: Geometric Least Squares Mean Cmax, Fed
measure: Cmax (ng/mL)
Supply the numeric figure in ng/mL, leaving out any unit text.

**Q:** State its Cmax: [2H]c1c([2H])c([2H])c2c(C(=O)c3cc(Br)c(O)c(Br)c3)c(C(C)O)oc2c1[2H] (racemic) [Compound 1]
**A:** 2170

====

protocolNotes: Phase 1 single dose study, plasma pharmacokinetics in healthy adult males
Type: in vivo, human
particulars: male, human, plasma, po, 100 mg, 100 mg single oral, fasted, suspension (C3); read-out: Tmax (median)
measure: Tmax (h)
Supply the numeric figure in h, leaving out any unit text.

**Q:** State its Tmax: [2H]c1c([2H])c([2H])c2c(C(=O)c3cc(Br)c(O)c(Br)c3)c(C(C)O)oc2c1[2H] (racemic)
**A:** 4

====

protocolNotes: Phase 1 multiple ascending dose study, plasma pharmacokinetics in healthy adult males
Type: in vivo
particulars: male, human, oral, 50 mg, 50 mg once daily, fasted, Day 10, read-out: AUC0-24
measure: AUC(0-t) (ng·h/mL)
Supply the numeric figure in ng·h/mL, leaving out any unit text.

**Q:** State its AUC(0-t): [2H]c1c([2H])c([2H])c2c(C(=O)c3cc(Br)c(O)c(Br)c3)c(C(C)O)oc2c1[2H] (racemic) [Compound 1]
**A:** 58200

====

protocolNotes: Phase 1 multiple ascending dose study, plasma pharmacokinetics in healthy adult males
Format: in vivo
particulars: male, human, oral, 75 mg, 75 mg once daily, fasted, Day 1, read-out: AUC0-24
measure: AUC(0-t) (ng·h/mL)
Supply the numeric figure in ng·h/mL, leaving out any unit text.

**Q:** State its AUC(0-t): [2H]c1c([2H])c([2H])c2c(C(=O)c3cc(Br)c(O)c(Br)c3)c(C(C)O)oc2c1[2H] (racemic)
**A:** 55600
